# Target entity: TEL-ALK-L1196M-BaF3 (Homo sapiens, UniProt Q9UM73, L1196M, cells depend on it)
# Construct: fused on or other part: TEL (ETV6) N-terminal oligomerising part fused before the ALK intracellular/kinase part; P41212 (Transcription factor ETV6)
# Sequence (Q9UM73 whole entry L1196M, the tested form may be a part): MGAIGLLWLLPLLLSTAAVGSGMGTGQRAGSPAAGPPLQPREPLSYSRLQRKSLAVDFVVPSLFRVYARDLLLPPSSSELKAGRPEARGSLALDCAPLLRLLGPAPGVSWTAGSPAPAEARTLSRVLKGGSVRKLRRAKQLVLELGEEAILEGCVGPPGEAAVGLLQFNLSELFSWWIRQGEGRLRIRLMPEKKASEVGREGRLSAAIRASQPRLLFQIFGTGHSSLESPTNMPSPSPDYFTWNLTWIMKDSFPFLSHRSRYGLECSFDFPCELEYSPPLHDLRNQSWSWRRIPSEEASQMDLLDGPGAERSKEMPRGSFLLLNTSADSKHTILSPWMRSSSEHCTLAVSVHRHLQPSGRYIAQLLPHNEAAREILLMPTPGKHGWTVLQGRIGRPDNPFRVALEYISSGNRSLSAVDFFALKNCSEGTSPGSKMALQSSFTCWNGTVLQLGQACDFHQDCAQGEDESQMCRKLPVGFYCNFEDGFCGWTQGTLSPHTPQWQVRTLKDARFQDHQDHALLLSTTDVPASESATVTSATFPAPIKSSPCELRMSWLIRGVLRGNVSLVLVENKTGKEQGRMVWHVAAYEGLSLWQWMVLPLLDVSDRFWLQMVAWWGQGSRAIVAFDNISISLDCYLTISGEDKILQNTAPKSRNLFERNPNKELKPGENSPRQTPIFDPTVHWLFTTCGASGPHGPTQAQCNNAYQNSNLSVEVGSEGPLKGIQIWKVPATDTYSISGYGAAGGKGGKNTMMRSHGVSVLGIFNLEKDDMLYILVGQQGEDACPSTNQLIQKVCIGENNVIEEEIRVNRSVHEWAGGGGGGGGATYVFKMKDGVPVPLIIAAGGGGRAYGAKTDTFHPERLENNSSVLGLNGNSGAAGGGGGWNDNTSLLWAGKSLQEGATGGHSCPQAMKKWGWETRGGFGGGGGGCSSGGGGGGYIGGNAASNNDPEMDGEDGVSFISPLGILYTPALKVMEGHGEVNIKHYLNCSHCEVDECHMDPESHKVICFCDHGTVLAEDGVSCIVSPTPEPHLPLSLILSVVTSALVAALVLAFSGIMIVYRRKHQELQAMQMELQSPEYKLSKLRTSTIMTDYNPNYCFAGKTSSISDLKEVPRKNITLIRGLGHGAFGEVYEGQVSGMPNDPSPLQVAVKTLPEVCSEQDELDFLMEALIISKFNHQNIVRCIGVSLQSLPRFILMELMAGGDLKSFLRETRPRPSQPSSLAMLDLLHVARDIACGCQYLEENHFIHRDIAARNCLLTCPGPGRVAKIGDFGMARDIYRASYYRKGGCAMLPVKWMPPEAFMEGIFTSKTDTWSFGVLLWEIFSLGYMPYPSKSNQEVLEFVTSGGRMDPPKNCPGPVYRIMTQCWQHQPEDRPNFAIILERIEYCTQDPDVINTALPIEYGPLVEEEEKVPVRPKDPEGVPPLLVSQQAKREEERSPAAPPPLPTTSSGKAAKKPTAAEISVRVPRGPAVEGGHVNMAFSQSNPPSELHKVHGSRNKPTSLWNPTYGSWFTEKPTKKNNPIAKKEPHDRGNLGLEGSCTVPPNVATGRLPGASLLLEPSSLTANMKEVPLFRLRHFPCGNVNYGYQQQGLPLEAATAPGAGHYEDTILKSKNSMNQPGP
# Protocol text: Cell proliferation experiment (Cell-Titer GLO), TEL-ALK-L1196M-BaF3
# Format: cell-based
# Condition parameters: 72 h, read-out: IC50 TEL-ALK L1196M-BaF3
# Procedure: Cell lines: Karpas-299 and NCI-H3122 which were purchased from the Nanjing kebai biotechnology Co. LTD; TEL-ALK-F1174L-BaF3, TEL-ALK-G1202R-BaF3, TEL-ALK-C1156Y-BaF3 and TEL-ALK-L1196M-BaF3 which were purchased from Hefei zhongkopruisheng biological medicine technology Co. LTD. Method: Cells were seeded in 96-well plates for 24 h in growth media containing 10% fetalbovine serum (FBS) and cultured overnight at 37° C. […]
Measured metric: GI50 (µM)

Cc1cc(Nc2ncc(C(F)(F)F)c(Nc3cn(C)nc3S(=O)(=O)C(C)C)n2)c2c(c1C1CCNCC1)C[C@@H](C)O2 ... 0.0104
Cc1cc(Nc2ncc(Cl)c(Nc3cn(C)nc3S(=O)(=O)C(C)C)n2)c2c(c1C1CCNCC1)C[C@@H](C)O2 [REX-D1] ... 0.0105
Cc1cc(Nc2ncc(C(F)(F)F)c(Nc3cn(C)nc3S(=O)(=O)C(C)C)n2)c2c(c1C1CCN(C)CC1)C[C@@H](C)O2 ... 0.0105
Cc1cc(Nc2ncc(Cl)c(Nc3cn(C)nc3S(=O)(=O)C(C)C)n2)c2c(c1C1CCN(C)CC1)C[C@@H](C)O2 [REX-D2] ... 0.0105

Values from patent US10710993B2
